Every entry's value here was drawn from patent US6747035B2.

Quick reference: pIC50 of the listed items.
Tested on: PDE4
Test: PDE4 enzyme inhibition (IC50), enzyme from cytosolic preparation of U937 cell line
Format: biochemical, human
Conditions: inhibitory activity on PDE4; substrate cAMP 0.25 μM; reaction stopped after 10 minutes
In plain terms, pIC50 is the concentration in mol/L turned into minus its base-10 logarithm.

Returns the measured pIC50 for the input molecule. Input: CC(=O)Nc1ccc2c(c1)c(=O)n(Cc1ccccc1)c1nnc(C)n21 [Example 4] 4.51

Others:
Given the entry CNc1ccc2c(c1)c(=O)n(Cc1ccccc1)c1nnc(C3CCCC3)n21 [Example 7] , report its measured pIC50. 7.12

Can you look up the measured pIC50 of CC(=O)N(C)c1ccc2c(c1)c(=O)n(Cc1ccccc1)c1nnc(C3CCCC3)n21 [Example 5] for me? 5.57

* * *

Test system: PDE4
Assay: PDE4 enzyme inhibition (IC50), enzyme from cytosolic preparation of U937 cell line
Assay type: biochemical, human
Conditions: inhibitory activity on PDE4; substrate cAMP 0.25 μM; reaction stopped after 10 minutes
pIC50 overview
Scale note: pIC50 = -log10(concentration in M).

Consider the compound shown here: CNc1ccc2c(c1)c(=O)n(Cc1ccc(C#N)cc1)c1nnc(C3CCCC3)n21 [Example 9] What is its recorded pIC50? 8.70

Next:
Dear colleague, I am looking for the recorded pIC50 of the following compound: CC(=O)Nc1ccc2c(c1)c(=O)n(Cc1ccccc1)c1nnc(C3CCCC3)n21 [Example 2] 5.07

Look at this compound and give its reported pIC50. O=c1c2cc(Br)ccc2n2c(C3CCCC3)nnc2n1Cc1ccccc1 [Example 10] 7.21

Which value of pIC50 has been reported for Cc1nnc2n(Cc3ccccc3)c(=O)c3cc(Br)ccc3n12 [Example 11] in the records? 6.00

Fill in: pIC50 of CC(=O)N(C)c1ccc2c(c1)c(=O)n(Cc1ccc(C#N)cc1)c1nnc(C3CCCC3)n21 [Example 8] is ___ 5.89
